Experiment: qHTS assay to identify small molecule agonists of the progesterone receptor (PR) signaling pathway - cell viability counter screen (AID 1346799); also: nearly all actives have a fitted effect of over 45% in size
Details: PR-UAS-bla HEK293T viability, CellTiter-Glo luminescence, 16 h; series mostly up to 92.4 µM
Inconclusive results are not listed. Activity calls are given as the source filed them. Calls follow the shape of the full dose curve.
Thanks in advance; please answer with one of these: Y for active, N for inactive

[[record]]
compound = "COC(c1ccccc1)(c1ccccc1)[C@H](Oc1nc(C)cc(C)n1)C(=O)O"
assigned_class = "N"

[[record]]
compound = "O=C(O)c1cccc(C(=O)O)c1"
assigned_class = "N"

[[record]]
compound = "Cc1cccc(O)c1C"
assigned_class = "N"

[[record]]
compound = "CCc1ccc(C(c2ccc(CC)cc2)C(Cl)Cl)cc1"
assigned_class = "N"


Name the outcome recorded for Nc1nc(=S)c2[nH]cnc2[nH]1 in the assay.
Y

Name the outcome recorded for CC(C)CCOCc1ccccc1 in the assay.
N

Name the outcome recorded for CCCCCCCCCCCCCC[P+](CCCC)(CCCC)CCCC in the assay.
Y

Name the outcome recorded for Cc1cccc([N+](=O)[O-])c1C(=O)O in the assay.
N

Name the outcome recorded for CC1=CC(=O)c2ccccc2C1=O in the assay.
N

Name the outcome recorded for O=C(OCc1ccccc1)c1ccc(O)cc1 in the assay.
N

Name the outcome recorded for O=C(Oc1ccccc1)c1ccccc1O in the assay.
N

Name the outcome recorded for CCC(C)(Oc1ccc(C2(c3ccc(OC(C)(CC)C(=O)O)cc3)CCCCC2)cc1)C(=O)O (centres undefined) in the assay.
N

Name the outcome recorded for CCCC(=O)c1ccccc1 in the assay.
N

Name the outcome recorded for C[N+]1([O-])CCOCC1 in the assay.
N

----------
Biological target: Estrogen receptor (Homo sapiens) (UniProt P03372)
Sequence (P03372 whole entry, looked up): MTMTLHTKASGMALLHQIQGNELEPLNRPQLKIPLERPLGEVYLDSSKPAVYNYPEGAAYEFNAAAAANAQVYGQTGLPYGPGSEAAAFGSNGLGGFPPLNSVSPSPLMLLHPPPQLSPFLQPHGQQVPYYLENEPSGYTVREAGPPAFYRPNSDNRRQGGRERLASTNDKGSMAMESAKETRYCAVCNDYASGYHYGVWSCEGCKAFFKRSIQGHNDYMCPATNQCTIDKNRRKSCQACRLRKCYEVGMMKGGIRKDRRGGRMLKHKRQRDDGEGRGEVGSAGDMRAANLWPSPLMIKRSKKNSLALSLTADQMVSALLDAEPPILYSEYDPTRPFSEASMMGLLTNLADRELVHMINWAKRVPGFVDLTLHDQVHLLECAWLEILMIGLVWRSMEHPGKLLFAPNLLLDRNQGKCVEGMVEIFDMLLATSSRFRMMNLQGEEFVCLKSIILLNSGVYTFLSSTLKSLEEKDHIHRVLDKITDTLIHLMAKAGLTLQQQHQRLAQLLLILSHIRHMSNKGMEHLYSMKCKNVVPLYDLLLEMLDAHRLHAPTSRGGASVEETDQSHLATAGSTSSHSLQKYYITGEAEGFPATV
Experiment: qHTS assay to identify small molecule antagonists of the estrogen receptor alpha (ER-alpha) signaling pathway using the BG1 cell line in the presence of 0.1 nM 17-beta-estradiol (AID 1259244); also: nearly all actives have a fitted effect of over 50% in size
Conditions: VM7Luc4E2 (BG1) ERE-luciferase, antagonist mode, 0.1 nM E2, 22 h; series mostly up to 92.4 µM
Inconclusive results are not listed. Calls of active or inactive are those of the source. The call rests on the fitted dose curve; in most records, active means well fitted inhibition curve with a large enough effect in the repeat runs; inconclusive means weak or mixed curves; inactive means no such curve, though single readings can be large or run the other way.
Thanks in advance; please answer with one of these: YES = active, NO = inactive

Use these answered entries as a reference point.
[[record]]
compound = "CCCNC(C)C(=O)Nc1ccccc1C (centres undefined)"
assigned_class = "NO"

[[record]]
compound = "O=C(O)c1cccc(C(=O)O)c1"
assigned_class = "NO"

[[record]]
compound = "O=C(OCc1ccccc1)c1ccc(O)cc1"
assigned_class = "NO"


Name the outcome recorded for c1ccc2c(c1)-c1cccc3c1c-2cc1ccccc13 in the assay.
NO

Name the outcome recorded for Cc1cc(Cc2cc(C)cc(C(C)(C)C)c2O)c(O)c(C(C)(C)C)c1 in the assay.
YES

Name the outcome recorded for c1ccc2cc3c(ccc4ccccc43)cc2c1 in the assay.
NO

Name the outcome recorded for O=C(O)CP(=O)(O)O in the assay.
NO

Name the outcome recorded for CCN(CC)C(=O)Nc1ccc(OCC(O)CNC(C)(C)C)c(C(C)=O)c1 (centres undefined) in the assay.
NO

----------
Assay: qHTS assay to identify small molecule antagonists of the peroxisome proliferator-activated receptor delta (PPARd) signaling pathway - cell viability counter screen (AID 743213); also: nearly all actives have a fitted effect of over 50% in size
Settings: PPARd-bla HEK293H viability, CellTiter-Glo luminescence, 17 h; series mostly up to 62 µM
Results filed as inconclusive are left out. The source made the active and inactive calls. Calls come from the whole dose curve; as a rule, active = well fitted cell-killing curve with a large enough effect in the repeat runs; inconclusive = weak or mixed curves; inactive = no such curve, though single readings can be large or run the other way.
Thanks in advance; please answer with one of these: active, inactive

Use these answered entries as a reference point.
[[record]]
compound = "CC(COc1ccccc1)N(CCCl)Cc1ccccc1 (centres undefined)"
assigned_class = "inactive"

[[record]]
compound = "CNC1(C)C2CCC(C2)C1(C)C (centres undefined)"
assigned_class = "inactive"

[[record]]
compound = "Cc1occc(=O)c1OC(=O)C(C)C"
assigned_class = "inactive"

[[record]]
compound = "C=CC(=O)OCCCCCCCC"
assigned_class = "inactive"

[[record]]
compound = "CCN(CC)c1ccc2c(C)cc(=O)oc2c1"
assigned_class = "inactive"


Name the outcome recorded for c1ccc2cc3c(ccc4ccccc43)cc2c1 in the assay.
inactive

Name the outcome recorded for Nc1cc(S(=O)(=O)O)cc2cc(S(=O)(=O)O)cc(O)c12 in the assay.
inactive

Data provenance is PubChem BioAssay (Tox21).
